# SUBJECT OF TEST: human HSL (Homo sapiens, UniProt Q05469)
# Construct: fused on or other part: C-terminal His6 tag
# Sequence (Q05469 whole entry, the tested form may be a part): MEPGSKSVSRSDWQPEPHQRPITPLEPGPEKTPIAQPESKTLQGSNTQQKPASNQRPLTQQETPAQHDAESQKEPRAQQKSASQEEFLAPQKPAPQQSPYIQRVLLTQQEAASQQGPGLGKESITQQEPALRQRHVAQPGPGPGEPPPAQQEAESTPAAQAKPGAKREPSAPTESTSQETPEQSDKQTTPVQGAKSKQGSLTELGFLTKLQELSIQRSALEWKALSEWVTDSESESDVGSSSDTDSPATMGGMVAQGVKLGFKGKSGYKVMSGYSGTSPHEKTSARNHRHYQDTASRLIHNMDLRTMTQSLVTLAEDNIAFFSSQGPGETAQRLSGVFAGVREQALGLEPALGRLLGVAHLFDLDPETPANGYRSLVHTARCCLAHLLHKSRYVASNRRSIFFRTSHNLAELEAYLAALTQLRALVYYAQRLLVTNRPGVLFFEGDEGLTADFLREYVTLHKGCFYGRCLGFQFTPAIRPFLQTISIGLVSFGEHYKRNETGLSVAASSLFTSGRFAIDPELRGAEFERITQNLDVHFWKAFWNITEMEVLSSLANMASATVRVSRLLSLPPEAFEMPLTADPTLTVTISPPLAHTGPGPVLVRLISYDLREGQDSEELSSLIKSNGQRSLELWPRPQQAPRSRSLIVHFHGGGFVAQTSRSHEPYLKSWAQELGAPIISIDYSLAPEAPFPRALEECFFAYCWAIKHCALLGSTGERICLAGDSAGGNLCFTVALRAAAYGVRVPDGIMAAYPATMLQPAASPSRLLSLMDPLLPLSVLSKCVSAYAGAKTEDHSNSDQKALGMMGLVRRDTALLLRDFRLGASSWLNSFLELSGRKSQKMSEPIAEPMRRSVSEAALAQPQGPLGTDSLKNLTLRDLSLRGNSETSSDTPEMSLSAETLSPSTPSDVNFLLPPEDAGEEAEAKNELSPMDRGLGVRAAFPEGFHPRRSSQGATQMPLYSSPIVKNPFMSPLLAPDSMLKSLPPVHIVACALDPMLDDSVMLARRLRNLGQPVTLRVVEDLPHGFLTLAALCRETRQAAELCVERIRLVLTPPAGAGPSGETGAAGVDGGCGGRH
# PROCEDURE TEXT: Human Hormone-Sensitive Lipase (HSL) enzyme inhibition assay (colorimetric, DMPT substrate)
# EXPERIMENTAL SETUP: human full length HSL-His6, 2,3-dimercapto-1-propanol tributyrate substrate, 37° C. 20 minutes; read-out: HSL hum IC50
Exercise: state measured pIC50 for each of the molecules provided.
Note: pIC50 values are expressed as the negative base-10 logarithm of concentration in M.

Specify pIC50 for CC(C)(C)CC(=O)N1CCC2(CCN(c3ccc(OC(F)(F)F)cc3)C2=O)CC1=O (stereo not drawn) , system human HSL (Homo sapiens, UniProt Q05469).
6.96

GET pIC50 | system: human HSL (Homo sapiens, UniProt Q05469) | item: CC(C)(C)CC(=O)N1CCC2(CCN(c3ccc(CC(F)(F)F)cc3)C2=O)CC1=O (stereo not drawn)
7.22

Please report the measured pIC50 for CC(C)(C)CC(=O)N1CCC2(CCN(c3ccc(OCC(F)(F)F)cc3)C2=O)CC1=O (stereo not drawn) tested on human HSL (Homo sapiens, UniProt Q05469).
6.85

Provide measured pIC50 on human HSL (Homo sapiens, UniProt Q05469) for CN1CCC2(CCN(c3ccc(OC(F)(F)F)cc3)C2=O)CC1=O (stereo not drawn) please.
5.22

System human HSL (Homo sapiens, UniProt Q05469). Read-out pIC50. Item CCCN1CCC2(CCN(c3ccc(OC(F)(F)F)cc3)C2=O)CC1=O (stereo not drawn) . Report value.
6.60

Lab note: record pIC50 of CCCCN1CCC2(CCN(c3ccc(OC(F)(F)F)cc3)C2=O)CC1=O (stereo not drawn) tested on human HSL (Homo sapiens, UniProt Q05469).
7.00

Enter recorded pIC50 with human HSL (Homo sapiens, UniProt Q05469) for O=C1CC2(CCN(c3ccc(CC(F)(F)F)cc3)C2=O)CCN1S(=O)(=O)c1ccccc1Cl (stereo not drawn) here.
7.52

# assay system human HSL (Homo sapiens, UniProt Q05469): give pIC50 of O=C1CC2(CCN1Cc1ccccc1)CCN(c1ccc(OC(F)(F)F)cc1)C2=O (stereo not drawn)
6.57

Find pIC50 for CC(C)(C)CN1CCC2(CCN(c3ccc(OC(F)(F)F)cc3)C2=O)CC1=O (stereo not drawn) on human HSL (Homo sapiens, UniProt Q05469) and write it down.
7.10

State the measured pIC50 (human HSL (Homo sapiens, UniProt Q05469)) of O=C1CC2(CCN(c3ccc(OC(F)(F)F)cc3)C2=O)CCN1S(=O)(=O)c1ccccc1Cl (stereo not drawn)
7.52

Write pIC50 of CCN1CCC2(CCN(c3ccc(OC(F)(F)F)cc3)C2=O)CC1=O (stereo not drawn) ; system used: human HSL (Homo sapiens, UniProt Q05469)
6.09

Please report the measured pIC50 for CC(C)CS(=O)(=O)N1CCC2(CCN(c3ccc(OC(F)(F)F)cc3)C2=O)CC1=O (stereo not drawn) tested on human HSL (Homo sapiens, UniProt Q05469).
6.80
